# target: Neu5Gc(a2-3)Gal(b1-3)GlcNAc
# experiment-notes: glycan array binding signal (z-score within array); higher = stronger binding
# settings: glycan notation: IUPAC condensed, linker removed
About 410 targets per protein were measured; listed, in parts, are those with the strongest signals and a random draw of the rest.
experimental-readout: glycan array binding signal (z-score)
Give the figure by itself; no unit, no explanation.

IRP60A (Homo sapiens), Q9UGN4 (protein) MWLPWALLLLWVPGCFALSKCRTVAGPVGGSLSVQCPYEKEHRTLNKYWCRPPQIFLCDKIVETKGSAGKRNGRVSIRDSPANLSFTVTLENLTEEDAGTYWCGVDTPWLRDFHDPVVEVEVSVFPASTSMTPASITAAKTSTITTAFPPVSSTTLFAVGATHSASIQEETEEVVNSQLPLLLSLLALLLLLLVGASLLAWRMFQKWIKAGDHSELSQNPKQAATQSELHYANLELLMWPLQEKPAPPREVEVEYSTVASPREELHYASVVFDSNTNRIAAQRPREEEPDSDYSVIRKT :: -0.502

Would you kindly look at the next entry?
So, Mannose Binding Protein (Lactobacillus plantarum) (protein) AERSEAALTHVDKDNFLKYFSLNGSATYDAKTGIVTITPNQNNQVGNFSLTSKIDMNKSFTLTGQVNLGSNPNGADGIGFAFHSGNTTDVGNAGGNLGIGGLQDAIGFKLDTWFNSYQAPSSDKNGSEISSTNSNGFGWNGDSANAPYGTFVKTSNQEISTANGSKVQRWWAQDTGESQALSKADIDGNFHDFVVNYDGATRTLTVSYTQASGKVLTWKTTVASSYQAMAMVVSASTGAAKNLQQFKLTSFDFQEAATVNVKYVDTTGHQLAQG ? Its glycan array binding signal (z-score) was -0.785

Numbers sourced from the supplement of paper PMC8728848.
